Test: Aqueous solubility of the compound
Assay type: physicochemical
compounds and their reported solubility
endpoint: solubility (mg/mL)

INSERT INTO assay_data (compound, assay_result) VALUES
  ('CC(C)[C@H](N)C(=O)O[C@@H]1[C@@H](CO)O[C@@H](n2ccc(N)nc2=O)[C@]1(C)O.Cl.Cl [VALOPICITABINE DIHYDROCHLORIDE]', 423),
  ('C[C@@]1(O)[C@H](O)[C@@H](CO)O[C@H]1n1ccc(N)nc1=O', 32);

* * *

Species on record: Homo sapiens
Test: Half life in human plasma
endpoint: half-life (h)

INSERT INTO assay_data (compound, assay_result) VALUES
  ('CC(C)[C@H](N)C(=O)O[C@@H]1[C@@H](CO)O[C@@H](n2ccc(N)nc2=O)[C@]1(C)O.Cl.Cl [VALOPICITABINE DIHYDROCHLORIDE]', 2.17);

* * *

Experiment: Cmax in Sprague-Dawley rat after 15 days at 60 mg/kg/day, iv
Format: ADME, organism-based
Set-up: dose 60 mg/kg/day, route intravenous
Conditions: in vivo
endpoint: Cmax (µg/mL)

INSERT INTO assay_data (compound_string, assay_result) VALUES
  ('C[C@@]1(O)[C@H](O)[C@@H](CO)O[C@H]1n1ccc(N)nc1=O', 75.6);

* * *

Test: Biliary excretion in bile duct cannulated Sprague-Dawley rat at 100 mg/kg, po after 72 hrs
Assay type: ADME, organism-based
Set-up: dose 100 mg/kg, route oral
Conditions: read-out: Activity
endpoint: dose excreted at 72 h (%)

INSERT INTO results (molecule, assay_result) VALUES
  ('CC(C)C(N)C(=O)O[C@H]1[C@H](CO)O[C@H](n2ccc(N)nc2=O)[14C@@]1(C)O.Cl.Cl (stereo partly specified)', 0.3);
